Test system: cAMP-specific phosphodiesterase (PDE IV)
Experiment: Inhibition of the PDE IV enzyme derived from a dog trachea
Format: biochemical
Details: test compound 10^−6 M; PDE IV from dog tracheal smooth muscle; substrate cAMP 1 μM
Protocol: cAMP-specific phosphodiesterase (PDE IV) was purified from a dog tracheal smooth muscle according to the method of Torphy et al. [Molecular Pharmacol., 37, 206-214 (1990)]. The PDE activity was measured by the following two steps according to the method of Kincaid and Manganiello et al. [Method in Enzymology (J. D. Corbin and R. A. Jonson, Eds.), 199, 457-470 (1988)]. […]
attribute measured: Enzyme Inhibitory Activity (%, 10^−6 M) (%)
# unit: % | format: bare number

Worked set:
COc1ccc(C(=O)Nc2c(Cl)cncc2Cl)c2c1OCC2CC(=O)N1CCN(c2ccccc2)CC1 (racemic) | 84
CCC1(CC)Cc2c(/C=C/c3c(Cl)cncc3Cl)ccc(OC)c2O1.CS(=O)(=O)O | 87
COc1ccc(C=Cc2ccncc2)c2c1OC1(CCCCC1)CC2.Cl | 58
COc1ccc(CSc2ccncc2)c2c1OCC2C (racemic) | 24
COc1ccc(C(=O)Cc2ccncc2)c2c1OCC2C (racemic) | 48

Query: Item CCOC(=O)CC1COc2c(OC)ccc(C(=O)NC3CCCCC3)c21 (racemic) with cAMP-specific phosphodiesterase (PDE IV) - Enzyme Inhibitory Activity (%, 10^−6 M)?
Response: 5

Query: // map CCCCc1cc2c(C(=O)Nc3c(Cl)cncc3Cl)ccc(OC)c2o1 to recorded Enzyme Inhibitory Activity (%, 10^−6 M) (system: cAMP-specific phosphodiesterase (PDE IV))
Response: 87

Query: Return Enzyme Inhibitory Activity (%, 10^−6 M) measured with cAMP-specific phosphodiesterase (PDE IV) given this compound: COc1ccc(C(Sc2ccncc2)c2ccccc2)c2c1OCC2C (racemic) [Compound 60B]
Response: 4

Query: // lookup Enzyme Inhibitory Activity (%, 10^−6 M) | system=cAMP-specific phosphodiesterase (PDE IV) | key= COc1ccc(C(=O)Nc2ccncc2)c2cc(-c3ccncc3)oc12.Cl.Cl
Response: 77

* * *

System: Sunkus murinus
Assay: Effect on vomiting induction in male Sunkus murinus
Assay type: in vivo
Details: dose 10 mg/kg i.p., observed for 1 hour after administration
Entries and their measured Number of vomiting animals/Number of experimental animals follow.

Query: Entry COc1ccc(-c2cnccc2C)c2c1OC1(CCCC1)O2 , system Sunkus murinus: what Number of vomiting animals/Number of experimental animals was measured?
Response: 0/5

Query: Request body: readout Number of vomiting animals/Number of experimental animals, system Sunkus murinus, query COc1ccc(C(=O)Nc2c(Cl)cncc2Cl)c2cc(C(=O)N3CCN(C)CC3)oc12 . Return the value.
Response: 0/5

* * *

melting point values by entry

Query: Find the recorded melting point belonging to COc1ccc(C(Sc2ccncc2)c2ccccc2)c2c1OCC2C (racemic) [Compound 60A] and report it.
Response: 59 to 62 °C

Query: Can you share its melting point? I mean this compound: COc1ccc(C=C(C#N)C#N)c2c1OC(C)(C)C2
Response: 198 to 200 °C

Query: Which melting point reading was recorded for the compound COc1ccc(C(=O)Cc2c(Cl)cncc2Cl)c2c1OC(C)(C)O2 ?
Response: 133 to 134 °C

Query: Any idea what its melting point is? The compound is COc1ccc(C(=O)Cc2ccncc2)c2c1OCCO2.Cl
Response: 226 to 228 °C

Query: Could you tell me which melting point is on file for COc1ccc(C(C)=Cc2ccncc2)c2c1OC(C)(C)C2 ?
Response: 85 to 87 °C

Query: So what's the measured melting point for this one? COc1ccc(C(=O)Cc2c(Cl)cncc2Cl)c2c(CC(=O)NCc3ccccc3)coc12 [Compound 155]
Response: 244 to 246 °C

Query: Entry COc1ccc(-c2ccc(C(=O)O)cc2)c2c1OCCO2 has what melting point?
Response: 281 to 284 °C

* * *

Target: phosphodiesterase 4A (Homo sapiens)
Construct: made in house; host or cells: E. coli
Test: Recombinant human PDE4A assay
Type: biochemical
# label = rule met if Enzyme Inhibitory Activity (%, 10^−7 M) >= 90% else rule not met

COc1ccc(C(=O)Nc2c(Cl)cccc2Cl)c2cc(C(=O)c3ccccc3)oc12 | rule met
COc1ccc(C(=O)Cc2ccncc2)c2c1OC1(CCCC1)C2.Cl | rule met
COc1ccc(C(=O)Cc2ccncc2)c2cc(C(=O)Nc3ccccc3)oc12.Cl | rule not met

Query: Is Enzyme Inhibitory Activity (%, 10^−7 M) at least 90%? Consider COc1ccc(C(=O)Cc2c(Cl)c[n+]([O-])cc2Cl)c2c1OCCCCO2
Response: rule met

Query: Say whether COc1ccc(C(=O)Cc2ccncc2)c2c1OC1(CCCCC1)C2.Cl shows Enzyme Inhibitory Activity (%, 10^−7 M) of 90% or more.
Response: rule met

* * *

Test system: Sunkus murinus
Experiment: Effect on vomiting induction in male Sunkus murinus
Type: in vivo
Conditions: dose 10 mg/kg i.p., observed for 1 hour after administration
Method: Five to fifteen male Sunkus murinus per group weighing approximately 60 g were used for the test. According to the method of Matsumoto, et. al. [Japan J. Pharmacol., 48, 303 (1988)], Sunkus murinus were placed separately into metal wire cages (width 15 cm×length 21 cm×height 15 cm). Each sample of the test compound was suspened in a 0.5% Tween 80 physiological saline solution and administered intraperitoneally (i.p.) at a dose of 10 ml/kg. […]
attribute measured: Number of vomiting animals/Number of experimental animals

COc1ccc(C(=O)Cc2c(Cl)cncc2Cl)c2cc(C(=O)N3CCN(C)CC3)oc12 [Compound 206] | 0/5
COc1ccc(C(=O)Cc2c(Cl)cncc2Cl)c2cc(C(=O)N3CCN(CCO)CC3)oc12 [Compound 207] | 0/5

// moving on: another record for Number of vomiting animals/Number of experimental animals
Query: Provide the documented Number of vomiting animals/Number of experimental animals with Sunkus murinus as the system for COc1ccc(C(=O)Cc2c(Cl)cncc2Cl)c2cc(C(=O)NCCN3CCOCC3)oc12 [Compound 216]
Response: 0/5

* * *

The reader will find reported Enzyme Inhibitory Activity (%, 10^−6 M) values listed item by item below.
Test system: cAMP-specific phosphodiesterase (PDE IV)
Assay: Inhibition of the PDE IV enzyme derived from a dog trachea
Type: biochemical
Settings: test compound 10^−6 M; PDE IV from dog tracheal smooth muscle; substrate cAMP 1 μM
Could you give me the number in %? Just the number is fine.

Below, each entry is followed by its recorded Enzyme Inhibitory Activity (%, 10^−6 M) result.
COc1ccc(C(=O)Cc2ccncc2)c2cc(-c3ccccn3)oc12.Cl.Cl | 87
COc1ccc(C(=O)Nc2c(Cl)cncc2Cl)c2c1OC(C)(C)CC2 | 92
COc1ccc(C(=Cc2ccncc2)c2ccccc2)c2c1OCC2C (racemic) | 17

Query: Item under review: COc1ccc(/C=C/c2ccncc2)c2cc(-c3ccccn3)oc12.Cl.Cl . Reported Enzyme Inhibitory Activity (%, 10^−6 M)?
Response: 69

Query: So what's the measured Enzyme Inhibitory Activity (%, 10^−6 M) for this one? CCC1(CC)Cc2c(C(=O)Cc3c(Cl)cncc3Cl)ccc(OC)c2O1
Response: 92

Query: Name the reported Enzyme Inhibitory Activity (%, 10^−6 M) value associated with the compound COc1ccc(/C=C/c2ccncc2)c2c1OC1(CCCCC1)C2.Cl
Response: 87

Query: Request the reported Enzyme Inhibitory Activity (%, 10^−6 M) associated with COc1ccc(C(=O)NC2CCCCC2)c2c1OCC2CC(=O)O (racemic)
Response: 8

Query: Look up Enzyme Inhibitory Activity (%, 10^−6 M) for this compound: CCC1(CC)Cc2c(CCc3c(Cl)cncc3Cl)ccc(OC)c2O1.CS(=O)(=O)O
Response: 69

Query: Would you kindly share the measured Enzyme Inhibitory Activity (%, 10^−6 M) for COc1ccc(C(=O)Nc2c(Cl)cncc2Cl)c2cc(C#N)oc12 ?
Response: 100

* * *

Molecular target: phosphodiesterase 4A (Homo sapiens, UniProt P27815)
Construct: made in house; host or cells: E. coli
Sequence (P27815 224-886 limits assumed): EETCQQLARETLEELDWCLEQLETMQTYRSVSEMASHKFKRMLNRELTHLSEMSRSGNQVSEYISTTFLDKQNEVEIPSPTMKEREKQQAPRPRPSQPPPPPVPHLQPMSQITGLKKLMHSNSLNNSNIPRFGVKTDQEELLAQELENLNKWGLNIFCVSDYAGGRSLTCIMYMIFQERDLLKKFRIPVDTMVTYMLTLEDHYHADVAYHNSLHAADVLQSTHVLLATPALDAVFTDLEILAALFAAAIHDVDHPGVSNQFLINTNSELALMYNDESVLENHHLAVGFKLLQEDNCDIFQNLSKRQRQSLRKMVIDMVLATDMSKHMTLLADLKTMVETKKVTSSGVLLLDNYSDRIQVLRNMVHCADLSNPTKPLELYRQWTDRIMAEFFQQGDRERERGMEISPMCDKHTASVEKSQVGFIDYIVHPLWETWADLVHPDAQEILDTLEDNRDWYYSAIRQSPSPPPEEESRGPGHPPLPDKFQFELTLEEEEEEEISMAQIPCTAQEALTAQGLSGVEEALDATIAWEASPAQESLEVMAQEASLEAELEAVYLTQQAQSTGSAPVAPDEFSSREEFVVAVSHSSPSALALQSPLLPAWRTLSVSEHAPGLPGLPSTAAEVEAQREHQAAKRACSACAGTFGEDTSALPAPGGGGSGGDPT
Assay: Recombinant human PDE4A assay
Type: biochemical
Conditions: 10^−7 M, read-out: Enzyme Inhibitory Activity (%, 10^−7 M)
Recorded measurements of inhibition at 0.1 µM, one per entry
Expressed in %, but write only the number.

Some solved entries appear below for comparison.
COc1ccc(C(=O)Nc2c(Cl)cncc2Cl)c2c1OC1(CCCC1)O2 | 100
COc1ccc(C(=O)Cc2c(Cl)cncc2Cl)c2c1OCCCO2 | 84
COc1ccc(C(=O)Cc2c(Cl)cncc2Cl)c2c1OCCCCO2 | 92

Query: Report inhibition at 0.1 µM for COc1ccc(C(=O)Nc2c(Cl)cncc2Cl)c2c1OC1(C=C2)CCCC1 tested on phosphodiesterase 4A (Homo sapiens, UniProt P27815).
Response: 87

Query: Could you share what inhibition at 0.1 µM was measured for COc1ccc(C(=O)Cc2c(Cl)cccc2Cl)c2cc(C(=O)c3ccccn3)oc12 , tested on phosphodiesterase 4A (Homo sapiens, UniProt P27815)?
Response: 91

Query: Find the measured inhibition at 0.1 µM: item COc1ccc(C(=O)Cc2c(Cl)cccc2Cl)c2cc(C(=O)Nc3cccc(F)c3)oc12 , target or system phosphodiesterase 4A (Homo sapiens, UniProt P27815).
Response: 87

Query: // lookup inhibition at 0.1 µM | system=phosphodiesterase 4A (Homo sapiens, UniProt P27815) | key= COc1ccc(C(=O)Cc2c(Cl)cncc2Cl)c2c(CC(=O)Nc3cccnc3)coc12
Response: 90

Query: Hi! What's the reported inhibition at 0.1 µM for COc1ccc(C(=O)Cc2c(Cl)cncc2Cl)c2c(CC(=O)OCCc3ccccc3)coc12 on phosphodiesterase 4A (Homo sapiens, UniProt P27815)?
Response: 94

Query: Identify the measured inhibition at 0.1 µM of CCOC(=O)c1coc2c(OC)ccc(C(=O)Cc3c(Cl)cncc3Cl)c12 for phosphodiesterase 4A (Homo sapiens, UniProt P27815).
Response: 99

Query: Form entry - test system: phosphodiesterase 4A (Homo sapiens, UniProt P27815); read-out: inhibition at 0.1 µM; molecule: COc1ccc(C=Cc2c(Cl)cncc2Cl)c2c1OC1(CCCC1)O2
Response: 100

Query: Form: Entry = COc1ccc(C(=O)Cc2c(Cl)cncc2Cl)c2c1OC1(CCCC1)O2 | System = phosphodiesterase 4A (Homo sapiens, UniProt P27815) | inhibition at 0.1 µM = ____
Response: 100

Query: Lookup: inhibition at 0.1 µM / phosphodiesterase 4A (Homo sapiens, UniProt P27815) / COc1ccc(/C=C/c2c(Cl)cncc2Cl)c2cc(-c3ccccn3)oc12
Response: 98

Query: Please state recorded inhibition at 0.1 µM (tested on phosphodiesterase 4A (Homo sapiens, UniProt P27815)) of COc1ccc(C(=O)Cc2c(Cl)cncc2Cl)c2c1OC1(CCCCC1)C2
Response: 100

Query: What reported inhibition at 0.1 µM corresponds to COc1ccc(C(=O)Cc2c(Cl)cccc2Cl)c2cc(C(=O)c3ccccc3)oc12 on phosphodiesterase 4A (Homo sapiens, UniProt P27815)?
Response: 96

Query: Report inhibition at 0.1 µM for COc1ccc(C(=O)Cc2c(Cl)cncc2Cl)c2c(CC(=O)OCc3ccccc3[N+](=O)[O-])coc12 tested on phosphodiesterase 4A (Homo sapiens, UniProt P27815).
Response: 92

Query: phosphodiesterase 4A (Homo sapiens, UniProt P27815) / inhibition at 0.1 µM / COc1ccc(C(=O)Cc2c(Cl)cncc2Cl)c2c(CC(=O)NCc3ccccc3)coc12 : value?
Response: 96

Query: # returns recorded inhibition at 0.1 µM (system: phosphodiesterase 4A (Homo sapiens, UniProt P27815)) for COc1ccc(C(=O)Cc2c(Cl)cncc2Cl)c2c1OC1(CCCCCC1)O2
Response: 93

Query: Please state recorded inhibition at 0.1 µM (tested on phosphodiesterase 4A (Homo sapiens, UniProt P27815)) of COc1ccc(/C=C/c2c(Cl)cncc2Cl)c2c1OCCCO2
Response: 84

Ref: patent US6716987B1
